Tested on: Jurkat
protocol description: In vitro test for antitumor activity against human Jurkat cell line using a formazan dye (MTT) conversion assay.
Type: functional, cell-based
attribute measured: IC50 (µM)

>  <query smiles>
COc1cccc(/C=C2\Cc3cc(OC)c(OC)cc3C2=O)c1

>  <result unit>
µM

>  <IC50>
12.8

$$$$
>  <query smiles>
COc1cc2c(cc1OC)C(=O)/C(=C/c1cc(C)cc(C)c1)C2

>  <result unit>
µM

>  <IC50>
0.08

$$$$
>  <query smiles>
COc1cc2c(cc1OC)C(=O)/C(=C/c1cc(C)c(N)c(C)c1)C2

>  <result unit>
µM

>  <IC50>
0.055

$$$$
>  <query smiles>
COc1cc2c(cc1OC)C(=O)/C(=C/c1cc(I)cc(I)c1O)C2

>  <result unit>
µM

>  <IC50>
2.5

$$$$

I = COc1cc2c(c(N)c1OC)C(=O)/C(=C/c1cc(C)c(O)c(C)c1)C2
II = COc1cc2c(c(N)c1O)C/C(=C\c1cc(C)c(O)c(C)c1)C2=O
III = COc1cc2c(cc1OC)C(=O)/C(=C/c1ccc(O)c(C)c1)C2
IV = COc1cc2c(cc1OC)C(=O)/C(=C/c1cccc([N+](=O)[O-])c1)CC2
Prompt: # sort list by recorded IC50, greatest to least Present the labels in the sequence the task asks for.
Response: II, IV, III, I
(II: 30 µM, IV: 9 µM, III: 1.16 µM, I: 0.004 µM)

A = COc1cc2c(cc1OC)C(=O)/C(=C/c1ccc(N)cc1)CC2
B = COc1cc(/C=C2\CCc3cc(OC)c(OC)cc3C2=O)cc(OC)c1
C = COc1cc2c(cc1O)C/C(=C\c1cc(C)c(O)c(C)c1)C2=O
Prompt: # sort list by recorded IC50, greatest to least Present the labels in the sequence the task asks for.
Response: A, B, C
(A: 40 µM, B: 5 µM, C: 0.53 µM)

----------
Test system: Jurkat
protocol description: In vitro test for antitumor activity against human Jurkat cell line using a formazan dye (MTT) conversion assay.
Type: functional, cell-based
Listed below: IC50 values for each entry.

Field: example entries. Status: answers known.
>  <query smiles>
COc1ccc(/C=C2\CCc3cc(OC)c(OC)cc3C2=O)c(OC)c1

>  <result>
> 50 µM

$$$$
>  <query smiles>
COc1cc2c(c([N+](=O)[O-])c1OC)C(=O)/C(=C/c1cc(C)c([N+](=O)[O-])c(C)c1)C2

>  <result>
> 50 µM

$$$$

Then this compound:
Prompt: What measured IC50 goes with COc1ccc2c(c1)C/C(=C\c1cc(C)c(O)c(C)c1)C2=O ?
Response: > 50 µM

----------
Tested on: Jurkat
protocol description: In vitro test for antitumor activity against human Jurkat cell line using a formazan dye (MTT) conversion assay.
Format: functional, cell-based
pIC50: −log10 of the molar value.
attribute measured: pIC50

Field: example entries. Status: answers known.
>  <query smiles>
COc1ccccc1/C=C1\CCc2cc(OC)c(OC)cc2C1=O

>  <tested target>
Jurkat

>  <result>
< 4.30

$$$$
>  <query smiles>
COc1cc2c(cc1OC)C(=O)/C(=C/c1ccc(O)c(C(=O)O)c1)CC2

>  <tested target>
Jurkat

>  <result>
< 4.30

$$$$

Prompt: What measured pIC50 goes with O=C1/C(=C/c2cc(Cl)cc(Cl)c2)Cc2cc(O)c(O)cc21 ?
Response: < 4.30

----------
Test system: Jurkat
protocol description: In vitro test for antitumor activity against human Jurkat cell line using a formazan dye (MTT) conversion assay.
Assay type: functional, cell-based
Listed below: IC50 values for each entry.

>  <query smiles>
COc1ccc2c(c1)C(=O)/C(=C/c1cc(C)c(O)c(C)c1)C2

>  <result>
> 50 µM

$$$$
>  <query smiles>
COc1cc2c(cc1OC)C(=O)/C(=C/c1cccc(OC)c1OC)CC2

>  <result>
> 50 µM

$$$$
>  <query smiles>
COc1cc2c(cc1OC)C(=O)/C(=C/c1cc(C)c(O)c(C)c1)CC2

>  <result>
4.8 µM

$$$$

Prompt: What IC50 appears in the records for this compound with Jurkat? COc1cc2c(cc1OC)C(=O)/C(=C/c1cc(OC)c(OC)c(OC)c1)CC2
Response: > 50 µM

Prompt: What IC50 appears in the records for this compound with Jurkat? COc1cc2c(c([N+](=O)[O-])c1OC)C(=O)/C(=C/c1cc(C)c(O)c(C)c1)C2
Response: > 50 µM
